- Target or system: T1, human CD70 on the surface of cells (human, UniProt P32970 1-193)
- T1 sequence (looked up): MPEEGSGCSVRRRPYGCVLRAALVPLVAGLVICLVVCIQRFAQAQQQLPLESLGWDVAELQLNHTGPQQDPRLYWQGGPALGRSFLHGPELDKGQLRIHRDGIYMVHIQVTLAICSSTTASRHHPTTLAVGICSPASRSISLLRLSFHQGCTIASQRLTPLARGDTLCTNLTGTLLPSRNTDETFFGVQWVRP
- Protocol description: cell-based or functional assay
Value type: Raji co-culture assay IC50 relative to 27B3

Record excerpt, results attached:
Binder	Experimental result
35G2 mAb (human IgG1, HEK293) (antibody, V domains shown) VH: EVQLVESGGGLVQPGGSLRLSCAASGFTFSVYYMNWVRQAPGKGLEWVSDINNEGGTTYYADSVKGRFTISRDNAKNTLYLQMNSLKPEDTAVYYCARDAGYSNHVPIFDSWGQGTLVTVSS VL: QTVVTQEPSFSVSPGGTVTLTCGLKSGSVTSTNFPTWYQQTPGQAPRLLIYNTNSRHSGVPDRFSGSILGNKAALTITGAQADDEADYFCALFISNPSVEFGGGTQLTVLG	1.4 fold relative to 27B3
53A2 mAb (human IgG1, HEK293) (antibody, V domains shown) VH: EVQLVESGGGLVQPGGSLRLSCAASGFTFSVYYMNWVRQAPGKGLEWVSDINNEGGTTYYADSVKGRFTISRDNSKNSLYLQMNSLRAEDTAVYYCARDAGYSNHVPIFDSWGQGTLVTVSS VL: QAVVTQEPSFSVSPGGTVTLTCGLKSGSVTSDNFPTWYQQTPGQAPRLLIYNTNTRHSGVPDRFSGSILGNKAALTITGAQADDEAEYFCALFISNPSVEFGGGTQLTVLG	0.8 fold relative to 27B3

// below: Raji co-culture assay IC50 relative to 27B3 requested for another binder
## Input State its Raji co-culture assay IC50 relative to 27B3 for this binder: 27B3 chimeric llama-human mAb (antibody, V domains shown, also called SIMPLE antibody 27B3; mAb 27B3) VH: EVQLVESGGGLVQPGGSLRLSCAASGFTFSVYYMNWVRQAPGKGLEWVSDINNEGGTTYYADSVKGRFTISRDNAKNTLTLQMNSLKPEDTALYYCVRDAGYSNHVPIFDSWGQGTQVIVAS VL: QAVVTQEPSLTVSPGGTVTLTCGLKSGSVTSTNFPTWYQQTPGQAPRLLIYNTNTRHSGVPSRFSGSISENKAALTITGAQPEDEAEYFCALFISNPSVEFGGGTQLTVLS
## Output 1 fold relative to 27B3
